- experiment-description: Solubility of the powder in 2-butanone
- Type: physicochemical
- condition: room temperature
result-type: Solubility of the powder in 2-butanone

{"compound": "O=C(Nc1ccccc1-c1nc2ccccc2c(=O)o1)NS(=O)(=O)c1ccc(Cl)cc1 [Example 4]", "measured-value": "less than 0.5%"}
{"compound": "Cc1ccc(S(=O)(=O)NC(=O)Nc2ccccc2-c2nc3ccccc3c(=O)o2)cc1 [Example 1]", "measured-value": "less than 0.5%"}
{"compound": "O=C(Nc1ccccc1-c1nc2ccccc2c(=O)o1)NS(=O)(=O)c1ccccc1 [Example 2]", "measured-value": "less than 0.5%"}

----------
Overview of recorded Emission (fluorescence) maximum of the resultant powder for various compounds
- experiment-description: Fluorescence emission and excitation maxima of the powder
- Format: physicochemical
- From the text: The benzoxazinone compounds of the present disclosure are colorless, and fluoresce in the visible region. More specifically, the benzoxazinone compounds of the present disclosure produce a bright emission in a region from about 520 nm to about 540 nm wavelength when irradiated by UV light energy at about 366 nm wavelength. The benzoxazinone compounds have an excitation maximum at about 340 nm to about 420 nm wavelength. […]
result-type: Emission (fluorescence) maximum of the resultant powder (nm)

{"record-smiles": "Cc1ccccc1S(=O)(=O)NC(=O)Nc1ccccc1-c1nc2ccccc2c(=O)o1", "measured-value": 530}
{"record-smiles": "O=C(Nc1ccccc1-c1nc2ccccc2c(=O)o1)NS(=O)(=O)c1ccc(Cl)cc1", "measured-value": 539}
{"record-smiles": "O=C(Nc1ccccc1-c1nc2ccccc2c(=O)o1)NS(=O)(=O)c1ccccc1", "measured-value": 528}
{"record-smiles": "Cc1ccc(S(=O)(=O)NC(=O)Nc2ccccc2-c2nc3ccccc3c(=O)o2)cc1", "measured-value": 526}
